All figures here come from paper PMC4184574.

# Test system: CYP2A6 (tranylcypromine), CYP2E1 (diethyldithiocarbamate); CYP-mediated 5-FU formation from R-FT
# Experimental details: Effects of CYP-selective inhibitors on 5-FU formation from FT enantiomers in pooled human hepatic microsomes
# Type: in vitro ADME
# Condition notes: human, pooled human liver microsomes, pH 7.4, probe R-FT (R-tegafur) 30 μmol/L, 5-FU formation, pooled human hepatic microsomes; R-FT 30 μmol/L; tranylcypromine 5 μmol/L, diethyldithiocarbamate 100 μmol/L
Counter-ions that a name gives are not always drawn.
Readout label: inhibition at 15 min

Item under review: N[C@@H]1C[C@H]1c1ccccc1 (racemic) [tranylcypromine, tranylcypromine hydrochloride] . Reported inhibition at 15 min?
~90%

###

# Test system: CYP2A6 (tranylcypromine), CYP2E1 (diethyldithiocarbamate); CYP-mediated 5-FU formation from S-FT
# Experimental details: Effects of CYP-selective inhibitors on 5-FU formation from FT enantiomers in pooled human hepatic microsomes
# Format: in vitro ADME
# Condition notes: human, pooled human liver microsomes, pH 7.4, probe S-FT (S-tegafur) 30 μmol/L, 5-FU formation, pooled human hepatic microsomes; S-FT 30 μmol/L; tranylcypromine 5 μmol/L, diethyldithiocarbamate 100 μmol/L
Structures can show the parent of a compound that is named as a salt.
Readout label: inhibition at 15 min

Item under review: N[C@@H]1C[C@H]1c1ccccc1 (racemic) [tranylcypromine, tranylcypromine hydrochloride] . Reported inhibition at 15 min?
~90%

###

# Measured target: CYP2A6 (Homo sapiens)
# Sequence (P11509 whole entry): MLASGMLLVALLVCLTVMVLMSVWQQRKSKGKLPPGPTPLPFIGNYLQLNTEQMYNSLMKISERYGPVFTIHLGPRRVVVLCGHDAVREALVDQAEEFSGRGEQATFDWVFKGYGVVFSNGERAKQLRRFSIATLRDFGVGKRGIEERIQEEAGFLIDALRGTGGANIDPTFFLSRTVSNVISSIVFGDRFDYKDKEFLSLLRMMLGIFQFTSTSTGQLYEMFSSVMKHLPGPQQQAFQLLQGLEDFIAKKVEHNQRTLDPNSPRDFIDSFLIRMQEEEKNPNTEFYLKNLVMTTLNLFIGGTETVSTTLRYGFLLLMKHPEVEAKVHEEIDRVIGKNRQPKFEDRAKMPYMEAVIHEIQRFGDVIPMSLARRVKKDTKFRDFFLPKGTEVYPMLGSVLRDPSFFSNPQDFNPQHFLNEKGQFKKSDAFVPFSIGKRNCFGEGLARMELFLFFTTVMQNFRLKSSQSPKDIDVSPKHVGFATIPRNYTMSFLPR
# Experimental details: 5-FU formation from FT enantiomers by cDNA-expressed CYP2A6 (kinetics, velocity, RAF contribution)
# Condition notes: cDNA-expressed CYP2A6
Readout label: Km (µM)
One number for each entry, in µM.

Lab request: please report Km under test system CYP2A6 (Homo sapiens) for O=c1[nH]c(=O)n([C@H]2CCCO2)cc1F
170

###

# Measured target: CYP1A2 (Homo sapiens)
# Construct: purchased BD Gentest; host or cells: insect cells (baculovirus)
# Sequence (P05177 2-516 limits assumed): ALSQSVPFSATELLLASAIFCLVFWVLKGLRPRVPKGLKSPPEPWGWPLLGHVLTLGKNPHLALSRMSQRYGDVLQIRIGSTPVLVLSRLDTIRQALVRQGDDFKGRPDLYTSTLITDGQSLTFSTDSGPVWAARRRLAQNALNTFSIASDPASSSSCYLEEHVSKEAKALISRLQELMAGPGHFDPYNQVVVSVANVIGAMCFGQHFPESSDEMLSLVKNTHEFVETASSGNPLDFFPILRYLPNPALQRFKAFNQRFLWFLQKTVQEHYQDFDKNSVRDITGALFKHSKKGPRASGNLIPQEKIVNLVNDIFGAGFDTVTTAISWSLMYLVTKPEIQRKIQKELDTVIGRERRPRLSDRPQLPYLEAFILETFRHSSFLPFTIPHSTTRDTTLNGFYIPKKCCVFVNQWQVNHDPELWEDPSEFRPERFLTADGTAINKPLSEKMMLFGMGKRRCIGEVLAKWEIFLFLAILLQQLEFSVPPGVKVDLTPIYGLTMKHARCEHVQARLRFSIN
# Experimental details: 5-FU formation from FT enantiomers by cDNA-expressed CYP1A2 (kinetics, velocity, RAF contribution)
# Format: in vitro ADME
# Condition notes: cDNA-expressed CYP1A2
Readout label: Km

Lab request: please report Km under test system CYP1A2 (Homo sapiens) for O=c1[nH]c(=O)n([C@H]2CCCO2)cc1F
1100 µM

Field: next compound
Lab request: please report Km under test system CYP1A2 (Homo sapiens) for O=c1[nH]c(=O)n([C@@H]2CCCO2)cc1F
> 10000 µM

###

# Test system: CYP2A6 (tranylcypromine), CYP2E1 (diethyldithiocarbamate); CYP-mediated 5-FU formation from S-FT
# Experimental details: Effects of CYP-selective inhibitors on 5-FU formation from FT enantiomers in pooled human hepatic microsomes
# Assay type: in vitro ADME
# Condition notes: human, pooled human liver microsomes, pH 7.4, probe S-FT (S-tegafur) 30 μmol/L, 5-FU formation
Readout label: inhibition at 15 min (%)
Answers are plain numbers, in %.

Item under review: CCN(CC)C(=S)S [diethyldithiocarbamate, sodium diethyldithiocarbamate] . Reported inhibition at 15 min?
34

###

# Experimental details: 5-FU formation from FT enantiomers in human hepatic microsomes (kinetic analysis, formation rate)
# Format: in vitro ADME
# Condition notes: microsomes HH81; monophasic kinetics
Readout label: Km (µM)
Give bare numbers, in µM.

Item under review: O=c1[nH]c(=O)n([C@@H]2CCCO2)cc1F . Reported Km?
1100

###

# Experimental details: 5-FU formation from FT enantiomers in pooled human hepatic cytosol
# Type: in vitro ADME
# Condition notes: read-out: apparent Km
Readout label: Km (mM)
Answers are plain numbers, in mM.

Item under review: O=c1[nH]c(=O)n([C@H]2CCCO2)cc1F . Reported Km?
26

###

# Experimental details: 5-FU formation from FT enantiomers in human hepatic microsomes (kinetic analysis, formation rate)
# Type: in vitro ADME
# Condition notes: microsomes HH94; monophasic kinetics
Readout label: Km (µM)
Give bare numbers, in µM.

Item under review: O=c1[nH]c(=O)n([C@@H]2CCCO2)cc1F . Reported Km?
1300

###

# Measured target: CYP2C19 (Homo sapiens, UniProt P33261)
# Construct: purchased BD Gentest; host or cells: insect cells (baculovirus)
# Sequence (P33261 whole entry): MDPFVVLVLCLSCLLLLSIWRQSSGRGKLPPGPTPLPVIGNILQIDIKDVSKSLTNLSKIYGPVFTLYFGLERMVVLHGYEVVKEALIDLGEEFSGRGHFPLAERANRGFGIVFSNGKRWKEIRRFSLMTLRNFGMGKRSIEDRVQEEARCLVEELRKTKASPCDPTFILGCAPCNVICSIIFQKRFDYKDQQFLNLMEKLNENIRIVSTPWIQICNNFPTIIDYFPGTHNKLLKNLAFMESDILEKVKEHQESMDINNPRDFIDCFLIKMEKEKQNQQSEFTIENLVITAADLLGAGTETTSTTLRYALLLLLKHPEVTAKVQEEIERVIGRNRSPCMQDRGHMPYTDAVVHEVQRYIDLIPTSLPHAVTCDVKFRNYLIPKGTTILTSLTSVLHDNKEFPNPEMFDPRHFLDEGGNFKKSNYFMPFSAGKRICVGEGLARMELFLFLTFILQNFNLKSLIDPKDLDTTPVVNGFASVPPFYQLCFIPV
# Experimental details: 5-FU formation from FT enantiomers by cDNA-expressed CYP2C19 (kinetics, velocity, RAF contribution)
# Type: in vitro ADME
# Condition notes: cDNA-expressed CYP2C19
Readout label: Km (mM)
Answers are plain numbers, in mM.

Item under review: O=c1[nH]c(=O)n([C@@H]2CCCO2)cc1F . Reported Km?
6.2

###

# Experimental details: 5-FU formation from FT enantiomers in human hepatic microsomes (kinetic analysis, formation rate)
# Type: in vitro ADME
# Condition notes: Mean ± SD of five human livers; monophasic kinetics
Readout label: Km (µM)
Numbers only, in µM.

Item under review: O=c1[nH]c(=O)n([C@@H]2CCCO2)cc1F [S-FT] . Reported Km?
1600
